Entry source: the supplement of paper PMC8728848

- System: Neu5Ac(a2-3)[GalNAc(b1-4)]Gal(b1-4)GlcNAc(b1-3)GalNAc
- Method summary: glycan array binding signal (z-score within array); higher = stronger binding
- Stated conditions: glycan notation: IUPAC condensed, linker removed
This excerpt belongs to a sample that is enriched for the strongest signals.

>  <Binder>
Gal 4 (Homo sapiens), Q8K419 (protein) MAYVPAPGYQPTYNPTLPYKRPIPGGLSVGMSVYIQGMAKENMRRFHVNFAVGQDDGADVAFHFNPRFDGWDKVVFNTMQSGQWGKEEKKKSMPFQKGKHFELVFMVMPEHYKVVVNGNSFYEYGHRLPVQMVTHLQVDGDLELQSINFLGGQPAAAPYPGAMTIPAYPAGSPGYNPPQMNTLPVMTGPPVFNPRVPYVGALQGGLTVRRTIIIKGYVLPTARNFVINFKVGSSGDIALHLNPRIGDSVVRNSFMNGSWGAEERKVAYNPFGPGQFFDLSIRCGMDRFKVFANGQHLFDFSHRFQAFQMVDTLEINGDITLSYVQI

>  <glycan array binding signal (z-score)>
-0.147

$$$$
>  <Binder>
Langerin K299A/K313A (Homo sapiens), Q9UJ71 (protein) STLNAQIPELKSDLEKASALNTKIRALQGSLENMSKLLKRQNDILQVVSQGWKYFKGNFYYFSLIPKTWYSAEQFCVSRNSHLTSVTSESEQEFLYKTAGGLIYWIGLTKAGMEGDWSWVDDTPFNKVQSARFWIPGEPNNAGNNEHCGNIAAPSLQAWNDAPCDATFLFICKRPYVPSEP

>  <glycan array binding signal (z-score)>
0.982

$$$$
>  <Binder>
CM2 (Cordyceps militaris) (protein) MEIAEQNVGKSCAIVNLIPPKEGSNIWTAKQVTIARNLPPNRGTGRHQIDWSFGPVKVTGYVDTTNWEIGVTVSIMGIDLGTVYGNLRDGVVLNVDLFLAKGQVRFYLKNGNEVWVHLSVEIRFDGKFEGDYKIITV

>  <glycan array binding signal (z-score)>
0.919

$$$$
>  <Binder>
Layilin (Mus musculus), Q8C351 (protein) MQPGAALQAMLLAVLLAKPRDSKGRLLSASDLDPRGGQLVCRGGTRRPCYKVIYFHDAFQRLNFEEAKETCMEDGGQLVSIETEDEQRLIEKFIENLLASDGDFWIGLKRLEEKQSNNTACQDLYAWTDGSTSQFRNWYVDEPSCGSEVCVVMYHQPSAPPGIGGSYMFQWNDDRCNMKNNFICKYHDDKPSTTPSIWPGGEATEPATPLLPEETQKEDTKETFKERREAALNLAYILIPSIPLFLLLVVTSAVCWVWICRRKREQTDPSTKEQHTIWPTPRQENSPNLDVYNVIRKQSEADLAEPRPDLKNISFRVCSGEAMPDDMSCDYENIAVNPSESGFVTLASMESGFVTNDIYEFSPDRMGRSKESGWVENEIYY

>  <glycan array binding signal (z-score)>
0.49

$$$$
>  <Binder>
pilr alpha (protein) MLYGVTQPKHLSASMGGSVEIPFSFYYPWELATAPDVRISWRRGHFHRQSFYSTRPPSIHKDYVNRLFLNWTEGQKSGFLRISNLQKQDQSVYFCRVELDTRSSGRQQWQSIEGTKLSIT

>  <glycan array binding signal (z-score)>
0.118

$$$$
